# Measurement Target: GTPase KRas (G12D) and Son of Sevenless Homolog 1 (SOS) (Homo sapiens, UniProt P01116, G12D)
# Sequence (P01116 whole entry G12D): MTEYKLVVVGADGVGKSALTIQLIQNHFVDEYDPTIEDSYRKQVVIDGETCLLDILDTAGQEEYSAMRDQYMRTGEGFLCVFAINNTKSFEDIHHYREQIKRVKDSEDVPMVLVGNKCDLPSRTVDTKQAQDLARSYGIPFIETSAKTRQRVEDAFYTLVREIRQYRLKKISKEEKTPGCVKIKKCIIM
# Sequence (Q07889 whole entry, further chain): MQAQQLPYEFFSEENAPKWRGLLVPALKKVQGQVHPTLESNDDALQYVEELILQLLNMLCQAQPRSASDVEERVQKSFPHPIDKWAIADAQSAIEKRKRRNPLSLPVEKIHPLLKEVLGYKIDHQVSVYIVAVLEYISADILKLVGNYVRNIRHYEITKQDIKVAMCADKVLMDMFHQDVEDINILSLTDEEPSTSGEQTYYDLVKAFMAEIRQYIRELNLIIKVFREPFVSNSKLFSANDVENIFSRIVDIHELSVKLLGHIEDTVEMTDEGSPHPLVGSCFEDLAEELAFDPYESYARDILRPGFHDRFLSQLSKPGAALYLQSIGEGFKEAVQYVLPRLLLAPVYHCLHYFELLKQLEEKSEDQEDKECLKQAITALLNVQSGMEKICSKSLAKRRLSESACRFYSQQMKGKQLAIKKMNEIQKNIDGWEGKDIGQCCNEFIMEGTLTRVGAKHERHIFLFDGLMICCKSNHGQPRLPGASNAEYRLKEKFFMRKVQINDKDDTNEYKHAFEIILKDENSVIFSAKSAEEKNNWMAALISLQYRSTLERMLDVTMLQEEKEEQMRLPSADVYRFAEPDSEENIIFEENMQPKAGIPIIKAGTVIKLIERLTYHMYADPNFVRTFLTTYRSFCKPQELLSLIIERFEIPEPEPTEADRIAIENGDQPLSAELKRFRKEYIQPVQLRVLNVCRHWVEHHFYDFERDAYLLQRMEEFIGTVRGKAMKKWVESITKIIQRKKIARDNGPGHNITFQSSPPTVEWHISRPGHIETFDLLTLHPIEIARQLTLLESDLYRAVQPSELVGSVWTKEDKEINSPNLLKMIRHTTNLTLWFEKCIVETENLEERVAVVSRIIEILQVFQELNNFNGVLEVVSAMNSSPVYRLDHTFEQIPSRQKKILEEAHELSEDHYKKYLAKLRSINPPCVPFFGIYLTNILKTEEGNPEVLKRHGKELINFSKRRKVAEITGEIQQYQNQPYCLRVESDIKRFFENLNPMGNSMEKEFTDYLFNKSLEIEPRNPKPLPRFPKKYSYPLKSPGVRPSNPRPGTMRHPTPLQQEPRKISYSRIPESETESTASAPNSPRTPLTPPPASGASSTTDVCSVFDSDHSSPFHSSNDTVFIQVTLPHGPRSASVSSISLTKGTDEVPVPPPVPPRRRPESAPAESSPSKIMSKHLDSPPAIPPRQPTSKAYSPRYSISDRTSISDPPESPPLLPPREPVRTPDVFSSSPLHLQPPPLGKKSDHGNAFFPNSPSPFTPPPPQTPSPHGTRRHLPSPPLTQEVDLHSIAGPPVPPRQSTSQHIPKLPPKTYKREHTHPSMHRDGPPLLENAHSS
# Method Description: AlphaScreen Assay
pIC50: −log10 of the molar value. Bridge positions count the residues as written; N and C are the ends. Square brackets hold non-standard residues; d marks the D form. Peptide text beside a SMILES is read from it. * marks the point of attachment. hPhe(3-F,4-CF3) = N[C@@H](CCc1ccc(C(F)(F)F)c(F)c1)C(=O)O; NMeCha = CN[C@@H](CC1CCCCC1)C(=O)O; cisHyp = O=C(O)[C@@H]1C[C@H](O)CN1; Hyp = O=C(O)[C@@H]1C[C@@H](O)CN1; NMeD = CN[C@@H](CC(=O)O)C(=O)O; NMeL = CN[C@@H](CC(C)C)C(=O)O; Piperidide = C1CCN(*)CC1; Ac5c = NC1(C(=O)O)CCCC1; Sar = CNCC(=O)O
Recorded pIC50 by entry

- Compound: "CCO[C@H]1C[C@H]2C(=O)NC3(CCCC3)C(=O)N(C)[C@@H](CC(C)C)C(=O)N(C)[C@H](C(=O)N3CCCCC3)CC(=O)N(C)[C@@H](CC(C)C)C(=O)N[C@@H]([C@@H](C)CC)C(=O)N(C)CC(=O)N(C)CC(=O)N(C)[C@@H](CC3CCCCC3)C(=O)N(C)CC(=O)N[C@@H](CCc3ccc(C(F)(F)F)c(F)c3)C(=O)N2C1 [US20240148821, Compound 2127] ([NMeL]I[Sar][Sar][NMeCha][Sar][hPhe(3-F,4-CF3)][cisHyp](Et)[Ac5c][NMeL][NMeD]-Piperidide; lactam N-11)"
  pIC50: 8.35
- Compound: "CCO[C@@H]1C[C@H]2C(=O)NC3(CCCC3)C(=O)N(C)[C@@H](CC(C)C)C(=O)N(C)[C@H](C(=O)N3CCCCC3)CC(=O)N(C)[C@@H](CC(C)C)C(=O)N[C@@H]([C@@H](C)CC)C(=O)N(C)CC(=O)N(C)CC(=O)N(C)[C@@H](CC3CCCCC3)C(=O)N(C)CC(=O)N[C@@H](CCc3ccc(C(F)(F)F)c(F)c3)C(=O)N2C1 [US20240148821, Compound 2118] ([NMeL]I[Sar][Sar][NMeCha][Sar][hPhe(3-F,4-CF3)][Hyp](Et)[Ac5c][NMeL][NMeD]-Piperidide; lactam N-11)"
  pIC50: 8.49

Numbers sourced from BindingDB's records for patent US20240148821.
